- EXPERIMENTAL PROTOCOL: Concentration response confirmation VP16 counterscreen for inhibitors of ROR gamma transcriptional activity; further: nearly all actives have a fitted effect of over 70% in size
- ASSAY CONTEXT: Drosophila S2 Gal4-VP16 UAS-luciferase, luminescence, 20 h; series mostly up to 46.1 µM
Results filed as inconclusive are left out. Activity calls are given as the source filed them. The call rests on the fitted dose curve; in most records, active means well fitted inhibition curve with a large enough effect; inconclusive means small, poorly fitted or top-dose-only effect, or effect the other way; inactive means no such curve, though single readings can be large or run the other way.
Respond using exactly one of the listed classes: YES for active, NO for inactive

Cc1nn(-c2cc(C)c3ccccc3n2)c2c1C1C(C2)C1(C)C (stereo not given)
YES
COc1ccc(C(=O)Nc2ccc(NC(=O)c3cccs3)cn2)cc1
NO
COc1ccc(OC)c(/C=C2\SC(=S)N(C(C(=O)O)c3ccccc3)C2=O)c1 (stereo not given)
NO
COc1ccc2[nH]c(C)c(CCN(Cc3cccs3)C(=S)Nc3ccccc3OC)c2c1
NO

Then there is this molecule:
Give the logged outcome of this assay for the following molecule: `C=C(C)c1cccc(C(C)(C)NC(=O)N2CCN(CC)CC2)c1`
NO
